Target protein (sequence): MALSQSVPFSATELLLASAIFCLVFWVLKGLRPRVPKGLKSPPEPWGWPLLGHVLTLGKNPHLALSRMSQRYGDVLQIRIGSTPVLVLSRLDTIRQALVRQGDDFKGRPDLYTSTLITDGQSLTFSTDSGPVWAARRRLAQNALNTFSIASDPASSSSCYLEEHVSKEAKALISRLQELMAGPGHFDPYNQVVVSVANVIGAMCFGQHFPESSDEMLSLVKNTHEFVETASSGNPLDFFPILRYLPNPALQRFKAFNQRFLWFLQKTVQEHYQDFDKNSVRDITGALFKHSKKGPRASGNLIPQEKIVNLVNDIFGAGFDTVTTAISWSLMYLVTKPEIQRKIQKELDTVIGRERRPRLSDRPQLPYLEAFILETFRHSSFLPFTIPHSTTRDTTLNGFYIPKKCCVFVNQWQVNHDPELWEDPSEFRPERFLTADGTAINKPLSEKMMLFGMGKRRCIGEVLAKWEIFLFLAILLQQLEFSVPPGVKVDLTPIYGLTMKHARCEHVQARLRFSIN
observed_property: IC50

Prompt: So what's the measured IC50 for this one? CC(C)c1cc(C(=O)N2CCc3sccc3C2)c(O)cc1O
Completion: > 50 µM

Values compiled from ChEMBL document CHEMBL3877290.
